Origin of values: PubChem BioAssay

assay.remarks: fission yeast growth modulation, primary screen, strain 972, OD600, 24 h, no modulator (AID 1090);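 further: basal condition with compound alone and no growth modifier present; test concentration not given here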
experimental.setup: S. pombe 972 growth, higher = more signal, called active from +8 up or from −8 down
metric: z-score
Give bare numbers.

Request: Provide only the value of recorded z-score for CCOC(=O)C1=CCC(c2cccn2C(=O)OC(C)(C)C)N(S(=O)(=O)c2ccc(C)cc2)C1 (centres undefined)
Response: 0.69

Request: Provide only the value of recorded z-score for CCCCCCc1nc(Cc2cc(OC)c(OC)c(OC)c2)c(C)c2c1[Si](C(C)C)(C(C)C)OC2
Response: -1.61

Request: Provide only the value of recorded z-score for COC(=O)[C@@]1(Cc2ccc(F)cc2)[C@H]2c3cc(C(=O)N4CCCC4)n(C[C@H](O)CO)c3C[C@H]2CN1C(=O)c1ccccc1
Response: 1.34

More entries:
Request: Provide only the value of recorded z-score for CN(C)C(=O)[C@]1(CCS(=O)(=O)c2ccccc2)N=C(c2ccc(OCCCO)cc2)O[C@@H]1c1ccccc1CN=[N+]=[N-]
Response: 0.349

----------
assay.remarks: E. coli DRC41 culture turbidity changes, primary screen, E. coli filamentation inducer project, strain DRC41, OD650, 48 h (AID 1152);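 further: E. coli MC1000 strain DRC41 lacking acrAB efflux pump and sulA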
experimental.setup: E. coli DRC41 (acrAB sulA), higher = more signal, called active from +8 up or from −8 down
Active and inactive are the calls of the source.
I'd be grateful if you could share measured z-score for these entries.

Request: Provide only the value of recorded z-score for C=CCOC(=O)[C@H]1[C@@H]2C(=O)O[C@@H](c3ccccc3)[C@@H](c3ccccc3)N2[C@@H](c2ccc(OCCOC(=O)[C@@H]3C[C@@H]4C(=O)N[C@@H](Cc5ccccc5)C(=O)N4[C@@H]3c3ccc(O)cc3)cc2)[C@]12C(=O)Nc1ccc(I)cc12
Response: -0.402 (inactive)

Request: Provide only the value of recorded z-score for CCOC(=O)C[C@H]1[C@H](OC(=O)c2ccccc2-c2ccccc2)[C@@H](NC(=O)CC(C)C)c2cc(OCCCO)ccc2N1C(=O)c1ccccc1
Response: 0.822 (inactive)

Request: Provide only the value of recorded z-score for [N-]=[N+]=Nc1ccccc1C[C@]1(C(N)=O)COC(c2ccc(OCCCO)cc2)=N1
Response: -0.142 (inactive)

# per-item lookup of z-score; items listed below
1. CCCCC(=C=CC[C@H](O)c1ccccc1OCCO)CCO
2. CC[C@H]1C2=C3C(CC[C@H]4C(OCc5ccc(F)cc5C(F)(F)F)OC[C@](C)([C@@H]34)N(C(=O)OC(C)(C)C)C2)C(COC(C)=O)C1COC(C)=O (stereo partly specified)
3. COCCCNC(=O)[C@]1(Cc2ccccc2CN=[N+]=[N-])N=C(c2ccc(OCCCO)cc2)O[C@@H]1c1ccccc1N=[N+]=[N-]

Response:
-0.0046 (inactive)
-2.44 (inactive)
0.913 (inactive)

----------
assay.remarks: P. aeruginosa biofilm formation inhibitors, primary screen, PAO1 strain, BacTiter-Glo luminescence, LB-PBS (AID 1144)
experimental.setup: 12 h, higher = more signal
metric: z-score
Answers are plain numbers.

Some molecules with known z-score results, for comparison:
Request: Provide only the value of recorded z-score for CCCCN1CC=CC23O[C@@H]4/C=C\CCCOC(=O)C4[C@H]2C(=O)N(CCCCCCO)[C@@H]3C1=O (some centres not stated)
Response: -1.2

Request: Provide only the value of recorded z-score for COC(=O)c1c2oc(c1C(=O)OC)C(=O)N[C@H](Cc1ccccc1)Cn1cc(nn1)C1(CCCCC1)NC(=O)N[C@H](CO)CC2
Response: -0.72

Request: Provide only the value of recorded z-score for CC[C@H]1C2=C3C(CC[C@H]4C(OCc5ccc(F)cc5C(F)(F)F)OC[C@](C)([C@@H]34)N(C(=O)OC(C)(C)C)C2)C(COC(C)=O)C1COC(C)=O (some centres not stated)
Response: 0.729

Request: Provide only the value of recorded z-score for O=C(c1ccccc1)N1Cc2ccccc2C[C@@]2(N=C(c3ccc(OCCCO)cc3)O[C@H]2c2ccccc2)C1=O
Response: -0.191

# per-item lookup of z-score; items listed below
1. COC(=O)[C@@]1(Cc2ccc(F)cc2)[C@H]2c3cc(C(=O)N(C)C)n(CCF)c3C[C@H]2CN1C(=O)c1ccccc1
2. C=CCNC(=O)[C@H]1[C@@H]2C(=O)O[C@@H](c3ccccc3)[C@@H](c3ccccc3)N2[C@@H](c2ccc(OCCO)cc2)[C@]12C(=O)N(C(=O)OCCOC)c1ccc(C#CCC(C(=O)OC)C(=O)OC)cc12
3. O=C/C=C/c1ccc(-c2ccccc2)cc1
4. C=CC[C@H](O)c1ccc(O)c2ccccc12
5. COC(=O)C(CC#Cc1ccc2c(c1)[C@]1(C(=O)N2)[C@H](c2ccc(OCCO)cc2)N2[C@H](c3ccccc3)[C@H](c3ccccc3)OC(=O)[C@H]2[C@@H]1C(N)=O)C(=O)OC
6. CO[C@H]1O[C@H](CO)[C@@H](OC(=O)CCc2ccccc2)[C@@H]2OC(=O)[C@@H](Cc3ccc4ccccc4c3)C/C=C/C[C@H](Cc3ccc4ccccc4c3)C(=O)O[C@@H]12
7. CC(C)c1ccc(NN2C(C(O)C3CCCCC3)C=CC3C(=O)N(c4ccccc4)C(=O)C32)cc1 (configuration not stated)
8. COC(=O)c1ccc(OC)c(/C=C\CC(OC(=O)c2ccncc2)c2ccccc2)c1 (configuration not stated)

Response:
1: -0.501; 2: 0.0229; 3: 1.68; 4: -0.725; 5: -0.287; 6: -0.302; 7: -1.15; 8: -0.526
